Assign pKi to each entry below.
- study_target: ENPP1 (Homo sapiens)
- Sequence (P22413 1-925): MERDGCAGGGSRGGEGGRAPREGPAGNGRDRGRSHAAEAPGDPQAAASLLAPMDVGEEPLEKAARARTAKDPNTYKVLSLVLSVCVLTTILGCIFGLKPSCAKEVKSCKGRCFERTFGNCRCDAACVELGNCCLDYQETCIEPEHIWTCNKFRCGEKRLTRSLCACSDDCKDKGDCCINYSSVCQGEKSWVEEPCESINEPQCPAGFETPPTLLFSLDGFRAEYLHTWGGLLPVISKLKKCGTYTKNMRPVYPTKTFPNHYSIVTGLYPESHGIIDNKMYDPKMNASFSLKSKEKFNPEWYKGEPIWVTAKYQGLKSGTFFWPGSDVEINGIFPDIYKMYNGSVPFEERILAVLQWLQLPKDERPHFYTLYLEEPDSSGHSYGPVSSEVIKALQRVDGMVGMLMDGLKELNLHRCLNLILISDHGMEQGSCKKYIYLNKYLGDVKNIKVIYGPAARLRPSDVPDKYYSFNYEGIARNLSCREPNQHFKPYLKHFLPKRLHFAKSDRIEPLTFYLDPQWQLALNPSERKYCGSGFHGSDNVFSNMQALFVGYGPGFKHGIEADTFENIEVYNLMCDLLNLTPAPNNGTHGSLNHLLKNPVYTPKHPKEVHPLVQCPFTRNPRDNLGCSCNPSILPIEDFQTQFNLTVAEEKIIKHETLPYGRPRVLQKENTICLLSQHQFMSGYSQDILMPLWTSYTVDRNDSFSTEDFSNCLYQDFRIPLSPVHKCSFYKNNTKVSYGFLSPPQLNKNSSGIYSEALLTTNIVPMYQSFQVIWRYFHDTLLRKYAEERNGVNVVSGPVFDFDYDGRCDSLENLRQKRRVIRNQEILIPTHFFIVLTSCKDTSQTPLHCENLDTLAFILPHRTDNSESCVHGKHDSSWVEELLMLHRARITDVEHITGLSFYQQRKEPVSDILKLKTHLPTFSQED
- assay_explanation: ENPP1 enzyme assay with AMP-pNP substrate (hydrolysis of ATP analog)
- Assay type: biochemical
- condition_set: AMP-pNP substrate (ATP analog); Ki from IC50 by Cheng-Prusoff; read-out: ENPP1 Inhibition _AMP-pNP: Ki
pKi: −log10 of the molar value.

Below, each entry is followed by its recorded pKi result.
1) COc1cc2nccc(Oc3ccc(NS(N)(=O)=O)cc3)c2cc1F | > 7.00
2) COc1ccc2ncc(C#N)c(-c3ccc(CNS(N)(=O)=O)cc3)c2c1 | < 6.00
3) COc1cc2ncnc(N3CCC(CCS(N)(=O)=O)CC3)c2cc1OC | > 7.00
4) COc1cc2nccc(-c3ccc(CNS(N)(=O)=O)cc3)c2cc1OC | > 7.00
5) COc1ccc2c(Oc3ccc(S(=N)(=O)O)cc3F)ccnc2c1 | < 6.00

Each molecule below has a reported value. Please supply its pKi.
1. NS(=O)(=O)N1CCC2(CCN(c3ncnc4cc(F)ccc34)CC2)C1
2. COc1cc2ncnc(N3CCC(CCNS(=O)(=O)C(F)F)CC3)c2cc1OC
3. COc1ccc2c(N3CCC4(CCNC4)CC3)c(C#N)cnc2c1

1: < 6.00; 2: < 6.00; 3: < 6.00

Measured pKi for this entry `COc1cc2ncc(C#N)c(N3CCC4(CC3)CCN(S(N)(=O)=O)C4)c2cc1OC` on ENPP1 (Homo sapiens): > 7.00

###

- study_target: ENPP1 (Homo sapiens)
- assay_explanation: Indirect quantitation of 2',3'-cGAMP hydrolysis (AMP-Glo Assay kit)
- Assay type: biochemical
- condition_set: cGAMP substrate; Ki from IC50 by Cheng-Prusoff; read-out: ENPP1 Inhibition -cGAMP: Ki
Assign Ki to each entry below.

Below, each entry is followed by its recorded Ki result.
1. COc1cc2nccc(Oc3c(F)cc(NS(N)(=O)=O)cc3F)c2cc1OC [Example 197] | < 100 nM
2. COc1cc2nccc(Oc3ccc(N)c(F)c3)c2cc1OC [Example 344] | > 1000 nM
3. COc1cc2nccc(N3CCC4(CCNC4=O)CC3)c2cc1OC [Example 187] | > 1000 nM
4. COc1cc2ncnc(N3CCC(CCNS(=O)(=O)N(C)C)CC3)c2cc1OC [Example 143] | > 1000 nM
5. COc1cc2ncnc(N3CCC(CCNS(=O)(=O)c4ccccn4)CC3)c2cc1OC [Example 155] | 100 to 1000 nM

Each compound below has a reported value. Please supply its Ki.
1. COc1cc2ncnc(N3CCC4(CC3)CCN(S(N)(=O)=O)C4)c2cc1OC [Example 29]
2. COc1cc2ccnc(N3CCC(CCNS(N)(=O)=O)CC3)c2cc1OC [Example 21]
3. COc1ccc2c(-n3cc(Cl)c4cc(NS(N)(=O)=O)ccc43)ccnc2c1 [Example 413]
4. COc1ccc2nccc(Oc3ccc(NS(N)(=O)=O)cc3)c2n1 [Example 346]
5. COc1cc2nccc(N3CCC(CCNS(N)(=O)=O)CC3)c2cc1OC [Example 43]
6. NS(=O)(=O)Nc1ccc(Oc2ccnc3[nH]ccc23)cc1 [Example 321]

1. < 100 nM
2. > 1000 nM
3. 100 to 1000 nM
4. 100 to 1000 nM
5. < 100 nM
6. > 1000 nM

###

- study_target: ENPP1 (Homo sapiens)
- assay_explanation: Indirect quantitation of 2',3'-cGAMP hydrolysis (AMP-Glo Assay kit)
- Assay type: biochemical
- condition_set: cGAMP substrate; Ki from IC50 by Cheng-Prusoff; read-out: ENPP1 Inhibition -cGAMP: Ki
pKi: −log10 of the molar value.
test_readout: pKi

Below, each entry is followed by its recorded pKi result.
1. COc1ccc2nccc(N3CCC4(CC3)CCN(S(N)(=O)=O)C4)c2c1 | > 7.00
2. COc1ccc(NC(=O)C2CCC(CNS(N)(=O)=O)CC2)cc1OC (centres unmarked) | < 6.00
3. COc1ccc2c(Oc3ccc(N(C)S(N)(=O)=O)cc3)ccnc2c1 | > 7.00
4. COc1cc2ncnc(N3CCC(CCNS(=O)(=O)c4ccccc4)CC3)c2cc1OC | < 6.00

Measured pKi for this entry `NS(=O)(=O)NCCC1CCN(c2cc(-c3ccc4c(c3)OCO4)ncn2)CC1` on ENPP1 (Homo sapiens): < 6.00

###

Assign pKi to each entry below.
- study_target: ENPP1 (Homo sapiens, UniProt P22413)
- assay_explanation: Indirect quantitation of 2',3'-cGAMP hydrolysis (AMP-Glo Assay kit)
- Assay type: biochemical
- condition_set: cGAMP substrate; Ki from IC50 by Cheng-Prusoff; read-out: ENPP1 Inhibition -cGAMP: Ki
pKi: −log10 of the molar value.

Below, each entry is followed by its recorded pKi result.
1) COc1cc(N)c(C(=O)N2CCC(CCNS(N)(=O)=O)CC2)cc1OC | < 6.00
2) COc1cc2nccc(Oc3ccc(NS(N)(=O)=O)cc3)c2cc1F | > 7.00
3) NS(=O)(=O)NCCC1CCN(c2ccnc3ncn(-c4ccccc4)c23)CC1 | < 6.00
4) COc1cc2c(-c3ccc(CNS(N)(=O)=O)cc3)c(C#N)cnc2cn1 | 6.00 to 7.00
5) COc1ccc2c(c1)OCCN2c1ccc(CNS(N)(=O)=O)cc1 | < 6.00

Each molecule below has a reported value. Please supply its pKi.
1. COc1cc2nccc(OC3CCC(NS(N)(=O)=O)C3)c2cc1OC (stereo not drawn)
2. NS(=O)(=O)NCCC1CCN(c2ncnc3cc4c(cc23)OCO4)CC1
3. COc1ccc2c(Oc3ccc(NS(N)(=O)=O)cc3)cc(C)nc2c1
4. COc1ccc2c(Oc3ccc(NS(N)(=O)=O)c(OC)c3)ccnc2n1

1: > 7.00; 2: < 6.00; 3: > 7.00; 4: > 7.00

Each molecule below has a reported value. Please supply its pKi.
1. COc1cc2ncnc(N3CCC(CCS(N)(=O)=O)CC3)c2cc1OC
2. COc1ccc2c(-c3ccc(CNS(N)(=O)=O)cc3C)ccnc2c1
3. COc1cc2nccc(N3CCC4(CC3)CCN(S(N)(=O)=O)C4)c2cc1OC
4. COc1cc2ncnc(NCc3ccc(S(N)(=O)=O)cc3)c2cc1F
5. COc1cc2ncnc(NCc3ccc(N4CCNS4(=O)=O)cc3)c2cc1OC
6. COc1ccc2c(-c3ccc(C(C)NS(N)(=O)=O)cc3)ccnc2c1 (stereo not drawn)
7. COc1ccc2c(Oc3ccc(NS(N)(=O)=O)cc3)ccnc2n1
8. COc1cc2nccc(Oc3ccc(NS(N)(=O)=O)cc3)c2cc1OC

1: > 7.00; 2: 6.00 to 7.00; 3: > 7.00; 4: > 7.00; 5: < 6.00; 6: > 7.00; 7: > 7.00; 8: > 7.00

Each molecule below has a reported value. Please supply its pKi.
1. COc1ccc2c(Oc3ccc(N(C4CC4)S(N)(=O)=O)cc3)ccnc2c1
2. COc1cc2nccc(Oc3cc(F)c(NS(N)(=O)=O)c(F)c3)c2cc1OC
3. COc1cc2ncnc(NCc3ccc(C(=O)NO)cc3)c2cc1OC
4. COc1cc2nccc(Oc3ccc(NS(=O)(=O)C(F)(F)F)cc3)c2cc1OC
5. COc1cc2ncnc(NC(c3ccc(NS(N)(=O)=O)cc3)C3CC3)c2cc1OC (stereo not drawn)
6. COc1cc2nccc(C(=O)N3CCC(CNS(N)(=O)=O)CC3)c2cc1OC
7. COc1cc2c(N3CCC(CCNS(N)(=O)=O)CC3)ncnc2cc1F

1: > 7.00; 2: 6.00 to 7.00; 3: > 7.00; 4: > 7.00; 5: > 7.00; 6: < 6.00; 7: 6.00 to 7.00
